Biological target: T1, rhesus CD45 ectodomain (Macaca mulatta, UniProt A0A1D5R142)
T1 construct: purified human, rhesus or cynomolgus CD45 ectodomain
T1 sequence (A0A1D5R142 26-581): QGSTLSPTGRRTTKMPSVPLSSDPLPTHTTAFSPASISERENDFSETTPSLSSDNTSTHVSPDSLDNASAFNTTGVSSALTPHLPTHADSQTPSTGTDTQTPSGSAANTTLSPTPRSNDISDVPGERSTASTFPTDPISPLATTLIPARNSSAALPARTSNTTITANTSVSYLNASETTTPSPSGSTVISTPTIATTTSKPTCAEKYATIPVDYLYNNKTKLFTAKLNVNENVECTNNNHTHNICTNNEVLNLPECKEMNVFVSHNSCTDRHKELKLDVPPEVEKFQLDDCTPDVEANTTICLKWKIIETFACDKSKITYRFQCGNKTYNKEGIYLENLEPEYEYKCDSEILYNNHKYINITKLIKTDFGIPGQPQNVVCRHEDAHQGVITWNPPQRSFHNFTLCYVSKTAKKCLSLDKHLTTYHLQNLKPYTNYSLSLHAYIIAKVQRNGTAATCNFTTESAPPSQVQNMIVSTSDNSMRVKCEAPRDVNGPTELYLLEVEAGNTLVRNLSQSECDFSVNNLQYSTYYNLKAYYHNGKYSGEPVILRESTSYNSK
Experiment: Biolayer interferometry (BLI, Octet) binding of immobilized IgG to purified CD45 ectodomain
Conditions: Table 2, Rhesus CD45
Recorded Endpoint: Kdis (s⁻¹)
Give just the numeric value; s⁻¹ need not be written.

These recorded examples may help you get a feel for the data.
Molecule	Units Of Measure	Kdis
Ab5: variant of Ab4 with asparagine to serine substitution in CDR-L1; VH SEQ ID NO:41, VL SEQ ID NO:45 (antibody, V domains shown) VH: EVQLVESGGGLVQPGGSLRLSCAASGFTFEAYSMNWVRQAPGKGLEWVSYISLSGATIHYADSVKGRFTISRDNAKNSLYLQMNSLRAEDTAVYYCARGGQYYYTSSDYGEVAFDIWGQGTMVTVSS VL: DIVMTQSPLSLPVTPGEPASISCRSSQSLVSSGYNYLDWYLQKPGQSPQLLIYFGSSRASGVPDRFSGSGSGTDFTLKISRVEAEDVGVYYCMQRRRTPWSFGGGTKVEIK	s⁻¹	0.000193
Ab3: affinity matured human anti-CD45 IgG derived from Ab1; VH SEQ ID NO:21, VL SEQ ID NO:25 (antibody, V domains shown) VH: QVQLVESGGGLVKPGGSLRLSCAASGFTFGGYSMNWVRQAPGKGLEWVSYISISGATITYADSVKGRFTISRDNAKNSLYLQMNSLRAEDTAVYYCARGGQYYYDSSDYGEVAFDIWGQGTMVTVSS VL: DIVMTQSPLSLPVTPGEPASISCRSSQSLVSNGYNYLDWYLQKPGQSPQLLIYFGSSRASGVPDRFSGSGSGTDFTLKISRVEAEDVGVYYCMQRRRTPPFTFGGGTKVEIK	s⁻¹	0.000222
Ab2: affinity matured human anti-CD45 IgG derived from Ab1; VH SEQ ID NO:11, VL SEQ ID NO:15 (antibody, V domains shown) VH: EVQLVESGGGLVQPGGSLRLSCAASGFTFEAYSMNWVRQAPGKGLEWVSYISLSGATIHYADSVKGRFTISRDNAKNSLYLQMNSLRAEDTAVYYCARGGQYYYDSSDYGEVAFDIWGQGTMVTVSS VL: DIVMTQSPLSLPVTPGEPASISCRSSQSLVSNGYNYLDWYLQKPGQSPQLLIYFGSSRASGVPDRFSGSGSGTDFTLKISRVEAEDVGVYYCMQRRRTPWSFGGGTKVEIK	s⁻¹	0.000192
Ab7: variant of Ab3 with asparagine to serine substitution in CDR-L1; VH SEQ ID NO:61, VL SEQ ID NO:65 (antibody, V domains shown) VH: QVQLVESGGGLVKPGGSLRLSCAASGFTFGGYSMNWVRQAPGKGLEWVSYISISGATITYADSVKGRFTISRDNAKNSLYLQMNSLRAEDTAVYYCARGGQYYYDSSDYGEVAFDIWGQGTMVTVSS VL: DIVMTQSPLSLPVTPGEPASISCRSSQSLVSSGYNYLDWYLQKPGQSPQLLIYFGSSRASGVPDRFSGSGSGTDFTLKISRVEAEDVGVYYCMQRRRTPPFTFGGGTKVEIK	s⁻¹	0.000544

Data request: Give the measured Kdis of Ab6: affinity matured human anti-CD45 IgG derived from Ab1; VH SEQ ID NO:51, VL SEQ ID NO:55 (antibody, V domains shown) VH: EVQLVESGGGLVQPGGSLRLSCAASGFTFEAYSMNWVRQAPGKGLEWVSYISLSGATIHYADSVKGRFTISRDNAKNSLYLQMNSLRAEDTAVYYCARGGQYYYTSSDYGEVAFDIWGQGTLVTVSS VL: DIVLTQSPLSLPVTPGEPASISCRSSQSLVSSGYNYLDWYLQKPGQSPQLLIYFGSSRASGVPDRFSGSGSGTDFTLKISRVEAEDVGVYYCMQRRRTPWSFGGGTKVEIK .
Data returned: 0.000175
